Provide the reported cGMP response as percent of CNP of each item.
- assay.target: natriuretic peptide receptor on C3H10T1/2 cells (Mus musculus)
- Construct: endogenous in cells; host or cells: C3H10T1/2 cells
- Sequence (Q6VVW5 23-1047 limits assumed): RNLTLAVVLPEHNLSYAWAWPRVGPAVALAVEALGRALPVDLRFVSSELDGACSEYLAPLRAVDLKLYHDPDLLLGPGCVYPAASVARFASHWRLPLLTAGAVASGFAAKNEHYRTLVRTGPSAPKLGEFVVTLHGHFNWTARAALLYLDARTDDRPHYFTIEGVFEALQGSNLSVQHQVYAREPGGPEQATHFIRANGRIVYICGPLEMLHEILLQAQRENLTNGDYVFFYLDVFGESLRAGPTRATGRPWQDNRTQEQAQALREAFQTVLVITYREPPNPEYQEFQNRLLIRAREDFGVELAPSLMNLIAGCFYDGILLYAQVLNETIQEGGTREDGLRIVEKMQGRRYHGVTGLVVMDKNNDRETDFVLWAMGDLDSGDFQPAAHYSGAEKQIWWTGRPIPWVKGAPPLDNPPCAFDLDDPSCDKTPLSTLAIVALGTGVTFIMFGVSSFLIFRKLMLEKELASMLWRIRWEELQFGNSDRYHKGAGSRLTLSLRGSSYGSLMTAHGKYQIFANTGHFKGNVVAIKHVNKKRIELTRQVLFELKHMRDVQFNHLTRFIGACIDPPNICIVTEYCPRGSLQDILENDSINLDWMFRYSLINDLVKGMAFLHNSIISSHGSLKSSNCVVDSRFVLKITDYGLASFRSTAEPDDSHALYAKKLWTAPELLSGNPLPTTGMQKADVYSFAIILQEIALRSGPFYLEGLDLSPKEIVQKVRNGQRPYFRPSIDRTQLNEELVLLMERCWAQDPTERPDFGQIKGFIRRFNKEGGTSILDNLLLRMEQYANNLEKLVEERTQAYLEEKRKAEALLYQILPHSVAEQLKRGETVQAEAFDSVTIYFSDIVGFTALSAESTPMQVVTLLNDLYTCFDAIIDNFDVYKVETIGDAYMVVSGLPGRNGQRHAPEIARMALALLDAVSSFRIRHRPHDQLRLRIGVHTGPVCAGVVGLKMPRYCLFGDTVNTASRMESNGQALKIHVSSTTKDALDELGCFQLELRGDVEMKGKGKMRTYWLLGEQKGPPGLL
- protocol: Biotrak enzyme immunoassay of cGMP elicited on C3H10T1/2 cells
- Format: cell-based
- condition.description: Table 3; cGMP values at 10^-6 M, compared to CNP (CNP 1-22 and CNP 5-22 = 100%)
Kindly answer with a numeric value in %, unit omitted.

Entry C F G L K L D R I G S M S G L G C (CFGLKLDRIGSMSGLGC) [SEQ ID NO:2] : reported cGMP response as percent of CNP = ? 100.000

Also C F G L K L D R I G S M S G A G C (CFGLKLDRIGSMSGAGC; peptide variant) [SEQ ID NO:63] ? −1.111

Repeat with C F G L K L D R I G S S S G L G C (CFGLKLDRIGSSSGLGC; peptide variant) [SEQ ID NO:68] 62.531

Try this sequence too: C F G L K L D Q I G S M S G L G C (CFGLKLDQIGSMSGLGC; peptide variant) [SEQ ID NO:50] 11.953

Now this one: C F G L K L D R I G A M S G L G C (CFGLKLDRIGAMSGLGC; peptide variant) [SEQ ID NO:54] 54.469

// same read-out, input: C F G L K L D R I G S K S G L G C (CFGLKLDRIGSKSGLGC; peptide variant) [SEQ ID NO:67] 66.910

Field entry: C F G L K L D R V G S M S G L G C (CFGLKLDRVGSMSGLGC; peptide variant) [SEQ ID NO:52] 27.103

Another sequence to check: C F G L K L N R I G S M S G L G C (CFGLKLNRIGSMSGLGC; peptide variant) [SEQ ID NO:37] 17.235

Also C F G L K L Q R I G S M S G L G C (CFGLKLQRIGSMSGLGC; peptide variant) [SEQ ID NO:36] ? −17.095

Also check C F G L K L D R I G S M S G M G C (CFGLKLDRIGSMSGMGC; peptide variant) [SEQ ID NO:62] 51.286

And C I G L K L D R I G S M S G L G C (CIGLKLDRIGSMSGLGC; peptide variant) [SEQ ID NO:28] ? 13.899

Follow-up item: C F G L K I D R I G S M S G L G C (CFGLKIDRIGSMSGLGC; peptide variant) [SEQ ID NO:46] 88.117

Repeat for the following sequence: C F G L K L D R I G S M S G G G C (CFGLKLDRIGSMSGGGC; peptide variant) [SEQ ID NO:64] −10.145

And then C F G L K A D R I G S M S G L G C (CFGLKADRIGSMSGLGC; peptide variant) [SEQ ID NO:45] , what is it? 11.259
